// reported growth inhibition for each item listed
Assay: NCI Yeast Anticancer Drug Screen. Data for the mec2-1 strain (AID 157)
Details: S. cerevisiae mec2-1 strain, at 50.0 µM, hits give high values
The panel holds about 79,000 compounds, 15% with a hit somewhere; the sample as a whole holds those more often.
Answer in %, number only, no unit symbol.

CSC1=NC=C(C#N)C2=NC(c3ccc(Cl)cc3)NN12 (configuration not stated)	2
Cc1csc(-n2nc(C)cc2C)n1	-23.1
COc1ccccc1NC(=S)NCCO	8.7

Input: Field request: growth inhibition | item: CC(/C=C/C(=O)c1sc(C(N)=S)nc1C)=C\c1ccccc1
Output: -13.1

Input: What growth inhibition value was documented for this molecule, COC(=O)Nc1cccc(OC(=O)NC2CCCCC2)c1 ?
Output: 32.7

Input: Which growth inhibition is reported for this molecule? CCOC(=O)/C=C(\CC(=O)OCC)Nc1ccc(OC)cc1
Output: -21.1

Input: Please give the measured growth inhibition for this molecule: O=C(O)CC(Cc1ccc2c(c1)OCO2)C(=O)O (configuration not stated)
Output: -2.35

Input: For the molecule CN=Cc1ccccc1O.CN=Cc1ccccc1O.[Cu+2] , what growth inhibition is on record?
Output: -8.6

Input: Endpoint output: growth inhibition of COc1ccc(C2C(C(=O)NCc3ccccc3)=C(C)NC(C)=C2C(=O)NCc2ccccc2)cc1OC . Value?
Output: -4.5

Input: # get_value(readout='growth inhibition', item= CCN(CC)CCN(C)CCN(CC)CC )
Output: 1.7

Input: Query: growth inhibition; subject: CC(C=O)CCC(C)(O)C=O (configuration not stated)
Output: -7.8

Input: Fill in the blank: the reported growth inhibition of CCO[C@H]1c2cc3c(cc2[C@@H](c2cc(OC)c(OC)c(OC)c2)[C@H]2C(=O)OC[C@@H]21)OCO3 is ____.
Output: 6.25

----------
A collection of molecules and their measured growth inhibition
Test: NCI Yeast Anticancer Drug Screen. Data for the bub3 strain (AID 167)
Details: S. cerevisiae bub3 mutant strain, at 50.0 µM, hits give high values
Compounds without any hit were thinned out: in the full panel of roughly 79,000, 15% have a hit.
The answer is to be given in %; state only the numeric part.

Worked examples, 3 molecules total:
O=CC(NC(=O)N(CCF)N=O)C(O)C(O)C(O)CO (stereo unspecified)	1.3
CC(C)OC(=O)CCCCCc1ccccc1	2.1
CN(C)c1ccc(/C=N/N=C2\C(=O)Nc3c(Cl)cc(Cl)cc32)cc1	43.5

Input: What value of measured growth inhibition is listed for O=C(O)CC(CSCP(=O)(O)O)C(=O)O (stereo unspecified) ?
Output: 1.45

Input: Fill in the blank: the reported growth inhibition of CC1CN(CNC(=O)NCN2CC(C)OC(C)C2)CC(C)O1 (stereo unspecified) is ____.
Output: 0.95

Input: Entry Cc1ccc([N+](=O)[O-])cc1NC(=O)C(=O)Cc1occc(=O)c1O has what growth inhibition?
Output: -8.85

Input: // lookup growth inhibition for C=C1CN=C(Nc2ccc(F)cc2F)S1
Output: 1.75

Input: Recorded growth inhibition of N=C(N)Sc1cc(O)c2ccccc2c1O , please.
Output: 4.1

Input: Name the recorded growth inhibition for COc1cc(CCl)c(OC)cc1Cl .
Output: 13.6

Input: What value of growth inhibition has been reported for the following molecule? O=CNCC(O)c1ccc2c(c1)[nH]c1ccccc12 (stereo unspecified)
Output: 19

Input: Requested field: growth inhibition. Item: CC1COC(C(C)C)(C(C)C)O1 (stereo unspecified)
Output: -2.7

Input: Field request: growth inhibition | item: COC(=O)C1C(C)C1c1ccc2c(c1)OCO2 (stereo unspecified)
Output: -0.7
